Reference for the values: a melting point compilation (Tetko et al.; mined from patent text by program, amines drawn as free bases though some values may be those of a salt)

What melting point was measured for each of the following?

*Q* State its melting point: COc1c(C)c(N2CCN(c3ccc(C(F)(F)F)cc3)CC2)c(C)c2c1OC(C)C2 (stereo not given)
*A* 142 to 145 °C

*Q* Answer with the recorded melting point for the compound listed here: CC(c1ccncc1Cl)C(O)(Cn1cncn1)c1ccc(F)cc1F (stereo not given)
*A* 182 to 184 °C

*Q* Return the recorded melting point value; entry: N#CC(c1ccccn1)C1CCCCC1O (stereo not given)
*A* 110 to 112 °C

Return reported melting point values for all items listed beneath this line.
1. Cc1ccnc(SCc2nc3ccc(CC(=O)O)cc3[nH]2)c1
2. CCCCCCCCc1ccc(NC2=NCCS2)cc1
3. CN(C)CCCCNC(=O)c1ccccc1-c1nnc(CSCCOc2ccccc2)o1
4. COc1ccc2c(c1OC)CCN(CCc1ccc(NC(=O)c3cccc4c(=O)c5cccc(OC)c5[nH]c34)cc1)C2
5. CN(C)C1(Cc2ccccc2)CC=C(c2c[nH]c3ncccc23)CC1 (stereo not given)

*A*
1: 121 to 124 °C; 2: 82 to 84 °C; 3: 62 to 65 °C; 4: 235 to 237 °C; 5: 222 to 225 °C

Could I get melting point for every one of these entries?
1. Cc1ccc(N)cc1C(=O)NS(C)(=O)=O
2. CNc1ncc2cc(-c3ccccc3)c(NC)nc2n1
3. Cc1nc2c(N)nc3cccnc3c2n1Cc1cc(-c2ccc(F)cc2)no1
4. CC(=O)c1cc(N2CCCC2)ccc1NC(=O)c1cccc(OCc2ccccc2)c1
5. NS(=O)(=O)c1ccc(-c2c(-c3ccccc3)[nH]c3ccccc23)cc1
6. O=C(O)c1ccccc1Oc1ccc(C(F)(F)F)cc1NS(=O)(=O)c1ccc(Br)cc1
7. Cc1cccc(NC(=O)NCC(=O)N(CC(=O)N2CCc3ccccc32)c2ccccc2)c1
8. O=C(O)COc1c(F)cc(SCCNS(=O)(=O)c2ccccc2)cc1F

*A*
1. 174 to 176 °C
2. 204 to 205 °C
3. 239 to 240 °C
4. 131 to 133 °C
5. 223 to 225 °C
6. 167 to 168 °C
7. 190 °C
8. 91 to 93 °C

Dear colleague, could you send me melting point for each of the items below? Thanks.
1. CC(O)(CC(=O)O)c1ccc(Oc2ccccc2)cc1 (stereo not given)
2. CC1(C)NS(=O)(=O)c2cc([N+](=O)[O-])ccc21
3. CC(C)(C)CC(=O)NCc1cccc2c1C(=O)N(C1CCC(=O)NC1=O)C2=O (stereo not given)
4. Cc1oc(-c2ccccc2)nc1CCOc1ccc(Cn2cc(CC(=O)O)c(-c3ccccc3)n2)cn1

*A*
137 to 138 °C
187 °C
145 to 147 °C
148 to 149 °C

---

Measured metric: melting point

Examples with answers:
*Q* Given the molecule CC(C)OC(=O)C1=C2SCC(=CC(=O)N(C)C)N2CC1 , write its reported melting point.
*A* 159 to 160 °C

*Q* State its melting point: O=S(=O)(Cl)c1nc2nc(CF)cc(Cl)n2n1
*A* 92 to 98 °C

*Q* Using the record for CCc1nn2c(-c3cccnc3)ccnc2c1Cl , state its measured melting point.
*A* 132 to 133 °C

*Q* Let me know recorded melting point for Cc1c(-c2ccc(Cl)cc2)c2cc(OC(C)(C)C(=O)O)ccc2n1C , thanks.
*A* 148 to 149 °C

*Q* Identify measured melting point associated with CC(C)(C)OC(=O)NC1Cc2ccccc2CC1=O (single isomer, unassigned; (+))
*A* 76 °C

Please find the next molecule below.
*Q* Input CC(C)(C)OC(=O)N(Cc1ccccc1)c1ccc(O)cc1 , output reported melting point.
*A* 228 to 230 °C

---

Give melting point for every item shown.

*Q* Identify measured melting point associated with CCC(C(C)=CC(CNC(=O)C1=NNC(=O)CC1)=NO)[N+](=O)[O-] (stereo unspecified)
*A* 129 to 130 °C

*Q* Tell me melting point reported for Nc1nc2ccccc2n1-c1ccc(I)cc1
*A* 212 to 214 °C

*Q* Kindly indicate its recorded melting point. Item: CCCCCNc1nc(C)c(C(=O)c2ccc(Cl)c([N+](=O)[O-])c2)s1
*A* 99 to 104 °C

Could you tell me melting point for each of these compounds? They are listed below.
1. N#CC1C(=O)NC(=O)C(C#N)C12CCN(Cc1ccccc1)CC2 (stereo unspecified)
2. CCOC(=O)c1nc(C)oc1C(=O)Cl
3. Cc1cccc(-c2ccc3c(c2)CC[C@H]2N(C)C(=O)CC[C@]32C)c1C
4. COc1ccc2ccc(S(=O)(=O)Cl)cc2c1
5. Nc1nc2cc(CO)ccc2n1Cc1cccc2cccnc12

*A*
179 to 181 °C
103 to 105 °C
133 to 140 °C
81 to 85 °C
> 260 °C

Quick request: melting point for each listed item, please.
1. CC(C)(C)c1ccc(S(=O)(=O)N2c3ccccc3C[C@H]2C(=O)NCc2ccc(CC(=O)O)cc2)cc1
2. CC(=O)Nc1ncc(C#Cc2cnn3c(C(F)(F)F)cc(-c4ccc(C(F)(F)F)cc4)nc23)cn1
3. Oc1ccc2c(-c3ccco3)nn(Cc3ccccc3F)c2n1

*A*
1: 80 to 85 °C; 2: 293 °C; 3: 250 °C

Parameter requested: melting point. Apply to each item below.
1. CC(=O)Nc1nc(C=O)c(Cc2ccccc2)s1
2. CC(C)(C)OC(=O)NC12CCC1CNC2 (stereo unspecified)
3. Clc1ccc(Cl)c(CN2CCNc3ncc(C4=CCNCC4)cc32)c1
4. CC(O)C(NC(=O)OCc1ccccc1)C(=O)NN (stereo unspecified)
5. O=c1[nH]c(C(F)(F)C(F)(F)F)nc2ncc(Br)cc12

*A*
191 to 192 °C
113 to 116 °C
133 to 136 °C
135 °C
200 to 202 °C

---

I'd appreciate it if you could supply melting point values for the items below.

Recorded melting point, per entry:
*Q* Report melting point, nothing else, for this compound: O=C1NC(=O)c2c1c(-c1ccccc1)cc1c2c2cc(O)ccc2n1CCCN1CCOCC1
*A* 252 to 255 °C

*Q* Provide melting point value for the following compound: CCOC(=O)Cc1ccc(-c2nc(COc3ccc(COc4nn(-c5ccccc5)cc4/C=C\c4cncn4CC)cc3OC)c(C)o2)cc1
*A* 85 to 86 °C

*Q* Consider the compound CC(=O)C(=CN(C)C)c1ccccc1 and give its recorded melting point.
*A* 66 °C

*Q* // Input: CSc1cc([N+](=O)[O-])ccc1C(N)=O . Output its melting point only.
*A* 202 to 204 °C

New cases:
*Q* Give recorded melting point. CC(C)(C)OC(=O)NC(CC(=O)NC1CC1)C1CC1 (stereo not given)
*A* 166 to 168 °C

---

Can you tell me melting point for the items I'm about to list?

Here is how some molecules turned out for melting point.
*Q* Please list melting point recorded for the molecule CCOC(=O)NC(=NCCCCc1ccccn1)NCCCc1c[nH]cn1
*A* 92 to 94 °C

*Q* Provide measured melting point value, entry: O=C(CBr)Nc1coc2ccccc2c1=O
*A* 198 °C

*Q* Output melting point of COC(=O)C(N)(CO)Cc1c[nH]c2ccccc12 (racemic)
*A* 148 to 149 °C

*Q* Provide measured melting point value, entry: CC(C)Cn1c(=O)n(C)c(=O)c2c(CCCCC(=O)O)n(Cc3cccc4ccccc34)cc21
*A* 146 to 147 °C

---
*Q* Answer with reported melting point of OC(CN1CCC(c2ccc(F)cc2)CC1)CN1CCC(c2ccc(F)cc2)CC1
*A* 79 to 80 °C

---

Measured metric: melting point

Consider the following illustrative entries.
*Q* Look up and state reported melting point for CC(=O)C12CC(C(C)=O)(C1)C2
*A* 67 to 69 °C

*Q* Annotate the compound COc1ccc(P(c2cc(C)cc(C(C)(C)C)c2O)c2cc(C)cc(C(C)(C)C)c2O)cc1 with its measured melting point.
*A* 122 to 124 °C

*Q* # return recorded melting point for input CCCCCCCCCCCCCCCCSCC(CN)n1nnc(C)n1 (stereo not given)
*A* 82 to 83 °C

*Q* Give the reported value of melting point for this record: O=C(O)c1cnc(Nc2cccc(C(F)(F)F)c2)[nH]c1=O
*A* 252 to 254 °C

*Q* # return recorded melting point for entry COCCNc1ccc2c(c1)OC(c1ccccc1)C(c1ccc3c(c1)NC(=O)CO3)=C2 (stereo not given)
*A* 185 to 192 °C

*Q* Return reported melting point. Input compound: CCCCCc1cc2c(nc(O)n2CC2CCN(C(C)=O)CC2)c(N)n1
*A* 228 to 231 °C

I need melting point for every entry listed below, if you could help.
1. CCOC(=O)c1ncn2c1CNC(=O)c1c(Cl)cccc1-2
2. CCCC1(C2=CCN(C)CC2)c2ccccc2CCc2ccccc21
3. O=C(O)C1([N+](=O)[O-])C(c2ccc([N+](=O)[O-])cc2)N=C2C=CC=CN21 (stereo not given)

*A*
278 to 279 °C
122 to 124 °C
> 300 °C

*Q* Please list melting point recorded for the compound Cc1cc2c(c(S(N)(=O)=O)n1)C(=O)OC2
*A* 211 to 213 °C
